These measurements were taken from ChEMBL document CHEMBL1671826.

Here, each record is paired with measured pIC50 data.
Target: Protein deacetylase HDAC6 (Homo sapiens, UniProt Q9UBN7)
Sequence (Q9UBN7 whole entry): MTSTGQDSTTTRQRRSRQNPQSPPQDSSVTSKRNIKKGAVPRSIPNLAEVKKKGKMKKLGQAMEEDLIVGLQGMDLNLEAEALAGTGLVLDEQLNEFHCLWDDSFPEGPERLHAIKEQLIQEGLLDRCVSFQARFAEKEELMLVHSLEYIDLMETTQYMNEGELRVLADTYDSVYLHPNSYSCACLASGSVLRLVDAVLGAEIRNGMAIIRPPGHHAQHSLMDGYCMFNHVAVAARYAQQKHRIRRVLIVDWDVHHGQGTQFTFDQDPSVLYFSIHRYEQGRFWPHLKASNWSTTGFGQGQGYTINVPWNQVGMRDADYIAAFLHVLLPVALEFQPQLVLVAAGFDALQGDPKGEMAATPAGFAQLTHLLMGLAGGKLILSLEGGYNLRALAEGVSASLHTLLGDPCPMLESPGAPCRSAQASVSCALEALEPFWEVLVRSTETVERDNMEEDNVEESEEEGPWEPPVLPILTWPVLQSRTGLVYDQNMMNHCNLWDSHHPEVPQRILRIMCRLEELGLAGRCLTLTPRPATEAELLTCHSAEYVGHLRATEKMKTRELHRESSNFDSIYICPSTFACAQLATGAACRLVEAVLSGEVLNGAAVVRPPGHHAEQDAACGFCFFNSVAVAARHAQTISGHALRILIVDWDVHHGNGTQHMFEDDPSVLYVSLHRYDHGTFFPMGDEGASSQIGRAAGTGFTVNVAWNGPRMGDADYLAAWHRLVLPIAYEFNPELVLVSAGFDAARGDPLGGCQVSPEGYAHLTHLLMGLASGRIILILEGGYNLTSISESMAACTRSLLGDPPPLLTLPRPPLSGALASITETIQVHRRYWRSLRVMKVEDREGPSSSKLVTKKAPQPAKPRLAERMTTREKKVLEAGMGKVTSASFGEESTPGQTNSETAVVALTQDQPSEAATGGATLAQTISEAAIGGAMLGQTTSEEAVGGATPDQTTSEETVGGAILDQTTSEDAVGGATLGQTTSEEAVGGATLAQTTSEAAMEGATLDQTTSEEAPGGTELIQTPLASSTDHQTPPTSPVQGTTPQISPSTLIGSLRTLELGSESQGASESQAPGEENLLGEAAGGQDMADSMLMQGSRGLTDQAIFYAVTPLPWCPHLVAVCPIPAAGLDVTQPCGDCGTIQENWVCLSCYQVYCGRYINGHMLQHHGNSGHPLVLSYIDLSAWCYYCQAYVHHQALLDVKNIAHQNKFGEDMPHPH
Assay: Inhibition of human recombinant HDAC6
pIC50: −log10 of the molar value.
readoutType: pIC50

# compound, testedTarget, readoutType, relationSign, measurement
measured = [
    ("CCCC(=O)O [BUTYRIC ACID]", "Protein deacetylase HDAC6 (Homo sapiens, UniProt Q9UBN7)", "pIC50", "<", 2.70),
    ("CCCC(CCC)C(=O)O [VALPROIC ACID]", "Protein deacetylase HDAC6 (Homo sapiens, UniProt Q9UBN7)", "pIC50", "<", 2.70),
    ("CCCC(CCC)C(=O)NO [VALPROPYLHYDROXAMIC ACID]", "Protein deacetylase HDAC6 (Homo sapiens, UniProt Q9UBN7)", "pIC50", "=", 4.80),
    ("O=C(CCCc1ccccc1)NO [PHENYLBUTYRYLHYDROXAMIC ACID]", "Protein deacetylase HDAC6 (Homo sapiens, UniProt Q9UBN7)", "pIC50", "=", 6.30),
    ("CCCC(=O)NO [BUTYRYLHYDROXAMIC ACID]", "Protein deacetylase HDAC6 (Homo sapiens, UniProt Q9UBN7)", "pIC50", "=", 5.70),
]
